This collection of values is drawn from paper PMC5146859.

# Test Protocol: Phase 1 pharmacokinetics (liquid chromatography/tandem mass spectrometry)
# Format: in vivo, human
# Measurement Conditions: human, in vivo, po, 200 mg, phase 1, Day 1, 200 mg (HCl and citrate salt cohorts pooled); read-out: AUC0-24h, Median
Measurement Kind: AUC(0-t)
Returns: string containing the numeric result and its unit.

Input: Entry C1=C/COCc2cc(ccc2OCCN2CCCC2)Nc2nccc(n2)-c2cccc(c2)COC/1 : reported AUC(0-t) = ?
Output: 87300 ng·h/mL

---

# Test Protocol: Phase 1 pharmacokinetics (liquid chromatography/tandem mass spectrometry)
# Assay type: in vivo, human
# Measurement Conditions: human, in vivo, oral, 500 mg, phase 1, Day 1, 500 mg; read-out: Cmax, Median
Measurement Kind: Cmax (ng/mL)
Please reply with the bare figure in ng/mL and do not write the unit itself.

Input: Entry C1=C/COCc2cc(ccc2OCCN2CCCC2)Nc2nccc(n2)-c2cccc(c2)COC/1 : reported Cmax = ?
Output: 6310

---

# Test Protocol: Phase 1 pharmacokinetics (liquid chromatography/tandem mass spectrometry)
# Type: in vivo, human
# Measurement Conditions: human, in vivo, oral, 100 mg, phase 1, Day 1, 100 mg; read-out: AUC0-24h, Mean
Measurement Kind: AUC(0-t) (ng·h/mL)
Please reply with the bare figure in ng·h/mL and do not write the unit itself.

Input: Entry C1=C/COCc2cc(ccc2OCCN2CCCC2)Nc2nccc(n2)-c2cccc(c2)COC/1 [pacritinib] : reported AUC(0-t) = ?
Output: 65900

---

# Test Protocol: Phase 1 pharmacokinetics (liquid chromatography/tandem mass spectrometry)
# Assay type: in vivo, human
# Measurement Conditions: human, in vivo, oral, 600 mg, phase 1, Day 15, 600 mg; read-out: Cmax, Median
# Procedure: In phase 1, full PK sampling was performed on days 1 and 15 of cycle 1 and day 1 of cycle 2. Trough PK samples were drawn prior to dosing on days 8 and 22 of cycle 1 and at 24, 48, and 72 h after dosing on day 25 of cycle 1. A sample was collected before dosing on day 1 of cycles 4, 7, and 10. Pacritinib concentrations were determined using a validated liquid chromatography/tandem mass spectrometry method. […]
Measurement Kind: Cmax

Input: Entry C1=C/COCc2cc(ccc2OCCN2CCCC2)Nc2nccc(n2)-c2cccc(c2)COC/1 [pacritinib] : reported Cmax = ?
Output: 8560 ng/mL

---

# Test Protocol: Phase 1 pharmacokinetics (liquid chromatography/tandem mass spectrometry)
# Format: in vivo, human
# Measurement Conditions: human, in vivo, po, 200 mg, phase 1, Day 15, 200 mg (HCl and citrate salt cohorts pooled); read-out: Tmax, Median
Measurement Kind: Tmax (h)
Please reply with the bare figure in h and do not write the unit itself.

Input: Entry C1=C/COCc2cc(ccc2OCCN2CCCC2)Nc2nccc(n2)-c2cccc(c2)COC/1 : reported Tmax = ?
Output: 5

---

# Test Protocol: Phase 1 pharmacokinetics (liquid chromatography/tandem mass spectrometry)
# Type: in vivo, human
# Measurement Conditions: human, in vivo, oral, phase 1, day 1, 100-600 mg; read-out: Median time to maximum concentration (Tmax), range over dose cohorts
Measurement Kind: Tmax

Input: Entry C1=C/COCc2cc(ccc2OCCN2CCCC2)Nc2nccc(n2)-c2cccc(c2)COC/1 : reported Tmax = ?
Output: 4 to 8 h

---

# Test Protocol: Phase 1 pharmacokinetics (liquid chromatography/tandem mass spectrometry)
# Format: in vivo, human
# Measurement Conditions: human, in vivo, oral, phase 1, day 15, 100-600 mg; read-out: Median time to maximum concentration (Tmax), range over dose cohorts
Measurement Kind: Tmax

Input: Entry C1=C/COCc2cc(ccc2OCCN2CCCC2)Nc2nccc(n2)-c2cccc(c2)COC/1 : reported Tmax = ?
Output: 2.5 to 5 h
